System: CCRIS mutagenicity, Ames/micronucleus/aberration tests
protocolSummary: CCRIS mutagenicity studies
measurementSetup: Test System: AMES SALMONELLA TYPHIMURIUM; Strain/Indicator: TA98; Metabolic Activation: NONE; Method: PREINCUBATION
Active and inactive are the calls of the source. No rule for the calls is given here.
endpointLabel: mutagenic call

Use the examples below as a reference point.
O=C(O)c1ccc(Cl)c([N+](=O)[O-])c1 ... active; positive
CCc1cn([C@H]2C[C@H](O)[C@@H](CO)O2)c(=O)[nH]c1=O ... inactive; negative
CCCCCOC(=O)C=Cc1ccc([N+](=O)[O-])o1 ... active; positive
O[C@H]1[C@H]2O[C@H]2c2c(ccc3ccccc23)[C@@H]1O ... active; positive
COC(C)CCO (configuration not stated) ... inactive; negative

Hey, quick one: what's mutagenic call for each of these?
1. CCc1cc(C(N)=S)ccn1
2. CC(C)CCCCCOC(=O)C[S][Sn]([CH3])([S]CC(=O)OCCCCCC(C)C)[S]CC(=O)OCCCCCC(C)C
3. c1ccc2c(c1)Oc1ccccc1S2
4. CC(=O)Oc1ccc2c(CBr)cc(=O)oc2c1
5. Cc1ccc(C)c(N)c1

1. inactive; negative
2. inactive; negative
3. inactive; negative
4. inactive; negative
5. inactive; negative

List the reported mutagenic call of each molecule below.
1. Cc1cnc2ccc3c(nc(N)n3C)c2n1
2. O=[N+]([O-])c1ccc(CNc2ncnc3c2ncn3[C@@H]2O[C@H](CO)[C@@H](O)[C@H]2O)cc1
3. CC(O)CNCC(C)O (configuration not stated)
4. O=[N+]([O-])c1cc2ccc3cccc4ccc(c1)c2c34
5. O=C(O)c1cc(Cl)cc(Cl)c1
6. CC(Br)C(=O)O (configuration not stated)

inactive; negative
inactive; negative
inactive; negative
active; positive
inactive; negative
inactive; negative

Record mutagenic call for all entries; do not skip any.
1. Nc1ccc(NC(=O)c2ccc(N)cc2)cc1
2. OCCCCCCO

1: inactive; negative; 2: inactive; negative

====

Test system: CCRIS mutagenicity, Ames/micronucleus/aberration tests
protocolSummary: CCRIS mutagenicity studies
measurementSetup: Test System: AMES SALMONELLA TYPHIMURIUM; Strain/Indicator: TA100; Metabolic Activation: RAT, LIVER, S-9, AROCLOR 1254 (30%); Method: PREINCUBATION
The source made the active and inactive calls. No rule for the calls is given here.
Hello, when you answer, please use one of the following outcomes: 1 for active, -1 for inactive

The following molecules have reported results that may help.
N#CC(O)c1ccccc1 (stereo unspecified) ... -1
CCCCCCCCCCCCCCCCCC[N+](C)(C)Cc1ccccc1 ... -1
CCc1cc(C(N)=S)ccn1 ... -1
COc1ccccc1O ... -1

# fetch the recorded call for `CCN(CC)N=O` here -1

Record request — test call for `COC(=O)c1ccccc1O` -1

For this molecule, state the assay outcome: ClC1=C(Cl)C2(Cl)C3C(Cl)C(Cl)CC3C1(Cl)C2(Cl)Cl (stereo unspecified) 1

I'd appreciate the recorded outcome for CC1OC1C (stereo unspecified) from this test. -1

Query: recorded result category for `Nc1ccccc1Cl` in this test -1

Assay result, entry `CC(=O)CC(C)C` — outcome? -1

Which outcome was entered for the molecule CCCCCCCCCCCCCCCCC1CO1 (stereo unspecified) in this test? -1

Which outcome did this test record for the molecule `Nc1c(Cl)cc(Cl)cc1Cl` ? -1

Assay result, entry CC(C)(C)c1ccc(OCC2CO2)cc1 (stereo unspecified) — outcome? -1

Short answer needed: outcome of this test for `[O]=[Cr](=[O])([OH])[O][Cr](=[O])(=[O])[OH]` ? 1

Recorded test call requested for COC(=O)C(c1ccccc1)C1CCCCN1 (stereo unspecified) -1

# outcome recorded in this test, key = `CCCCCCCCCCCC(=O)[O][Sn]([CH2]CCC)([CH2]CCC)[O]C(=O)CCCCCCCCCCC` -1
